- system name: human F508del-CFTR (Homo sapiens, UniProt P13569, DEL508-508)
- Sequence (P13569 with tags, fused parts or gaps DEL508-508): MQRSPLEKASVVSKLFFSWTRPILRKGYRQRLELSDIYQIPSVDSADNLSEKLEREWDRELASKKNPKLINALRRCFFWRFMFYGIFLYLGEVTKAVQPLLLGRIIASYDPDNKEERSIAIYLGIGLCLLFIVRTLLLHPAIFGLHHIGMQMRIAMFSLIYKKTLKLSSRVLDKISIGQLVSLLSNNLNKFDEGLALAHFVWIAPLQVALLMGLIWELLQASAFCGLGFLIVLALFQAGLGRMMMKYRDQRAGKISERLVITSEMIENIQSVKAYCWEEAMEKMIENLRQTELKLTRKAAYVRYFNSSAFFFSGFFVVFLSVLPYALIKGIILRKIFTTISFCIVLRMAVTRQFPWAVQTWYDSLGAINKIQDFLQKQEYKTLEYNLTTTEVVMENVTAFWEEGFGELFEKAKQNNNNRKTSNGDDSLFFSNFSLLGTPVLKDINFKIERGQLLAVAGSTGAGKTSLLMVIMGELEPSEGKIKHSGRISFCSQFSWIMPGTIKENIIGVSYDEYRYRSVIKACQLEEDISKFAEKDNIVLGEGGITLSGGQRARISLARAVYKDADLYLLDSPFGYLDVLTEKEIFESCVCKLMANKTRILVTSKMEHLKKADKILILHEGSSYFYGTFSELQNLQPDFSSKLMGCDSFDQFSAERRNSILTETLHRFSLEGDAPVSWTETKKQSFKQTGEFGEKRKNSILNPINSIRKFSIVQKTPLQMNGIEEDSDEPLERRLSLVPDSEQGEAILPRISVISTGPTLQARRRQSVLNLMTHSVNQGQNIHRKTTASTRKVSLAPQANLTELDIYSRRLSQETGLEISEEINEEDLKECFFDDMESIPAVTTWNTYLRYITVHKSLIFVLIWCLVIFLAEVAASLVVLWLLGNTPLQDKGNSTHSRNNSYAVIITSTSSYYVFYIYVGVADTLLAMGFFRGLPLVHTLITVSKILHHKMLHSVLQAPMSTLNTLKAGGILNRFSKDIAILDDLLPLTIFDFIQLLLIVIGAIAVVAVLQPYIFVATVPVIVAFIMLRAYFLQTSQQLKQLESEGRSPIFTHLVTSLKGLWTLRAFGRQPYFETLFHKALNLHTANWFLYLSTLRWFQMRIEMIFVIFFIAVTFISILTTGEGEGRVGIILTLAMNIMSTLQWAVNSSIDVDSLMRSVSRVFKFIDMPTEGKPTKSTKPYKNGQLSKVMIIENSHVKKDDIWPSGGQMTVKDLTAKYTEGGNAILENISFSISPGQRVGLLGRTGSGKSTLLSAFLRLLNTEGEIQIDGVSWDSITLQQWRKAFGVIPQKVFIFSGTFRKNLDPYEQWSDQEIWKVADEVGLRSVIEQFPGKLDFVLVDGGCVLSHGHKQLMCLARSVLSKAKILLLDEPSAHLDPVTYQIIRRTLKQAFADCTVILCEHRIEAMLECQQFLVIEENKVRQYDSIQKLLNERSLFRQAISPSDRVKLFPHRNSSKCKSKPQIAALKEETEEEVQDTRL
- experiment description: F508del-CFTR cell surface expression (corrector activity), DiscoveRx ß-galactosidase complementation chemiluminescence assay in recombinant U2OS cell line;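 further: U2OS cells co-expressing ProLink-tagged F508del-CFTR and a membrane-anchored enzyme acceptor, where more surface CFTR restores β-galactosidase activity measured by chemiluminescence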
- cond: EC50, F508del-CFTR cell surface expression, U2OS cells, 16h compound incubation; geomean values
# binning rule on EC50: class 0 (below 500 nM), class 1 (500 nM to below 800 nM), class 2 (800 nM or more)

>  <molecule>
COc1cccc(CCNC(=O)[C@@H]2CC(=O)N(C)[C@@H](CC(C)C)C(=O)N(C)[C@@H](C)C(=O)N[C@H](Cc3ccccc3)COc3ccc4cc(C)oc4c3C(=O)N2)c1 (mixture of isomers) [Example 575]

>  <system name>
human F508del-CFTR (Homo sapiens, UniProt P13569, DEL508-508)

>  <class>
class 0

$$$$
>  <molecule>
COc1cccc(CCNC(=O)[C@@H]2CC(=O)N(C)[C@@H](CC(C)C)C(=O)N3CCCC[C@@H]3C(=O)N[C@H](Cc3ccccc3)COc3nc4ccccn4c3C(=O)N2)c1 [Example 469]

>  <system name>
human F508del-CFTR (Homo sapiens, UniProt P13569, DEL508-508)

>  <class>
class 0

$$$$
>  <molecule>
COc1cccc(CCNC(=O)[C@@H]2CC(=O)N(C)[C@@H](CC(C)C)C(=O)N3CCN(C(=O)c4cnccn4)C[C@@H]3C(=O)N[C@H](Cc3ccccc3)COc3ccc4ccccc4c3C(=O)N2)c1 [Example 753]

>  <system name>
human F508del-CFTR (Homo sapiens, UniProt P13569, DEL508-508)

>  <class>
class 0

$$$$
>  <molecule>
COc1nccc2c1C(=O)N[C@H](C(=O)NCCc1cc(C)no1)CC(=O)N(C)[C@@H](CC(C)C)C(=O)N1CCCC[C@@H]1C(=O)N[C@H](Cc1ccccc1)CO2 [Example 477]

>  <system name>
human F508del-CFTR (Homo sapiens, UniProt P13569, DEL508-508)

>  <class>
class 1

$$$$
>  <molecule>
Cc1cc(CCNC(=O)[C@@H]2CC(=O)N(C)[C@@H](CC(C)C)C(=O)N3CCN(S(=O)(=O)c4cccnc4)C[C@@H]3C(=O)N[C@H](Cc3ccccc3)COc3ccc4ccccc4c3C(=O)N2)on1 [Example 475]

>  <system name>
human F508del-CFTR (Homo sapiens, UniProt P13569, DEL508-508)

>  <class>
class 2

$$$$
>  <molecule>
Cc1cc(CCNC(=O)[C@@H]2CC(=O)N(C)[C@@H](CC(C)C)C(=O)N3CCCC[C@@H]3C(=O)N[C@H](Cc3ccccc3)COc3nc4ccccn4c3C(=O)N2)on1 [Example 470]

>  <system name>
human F508del-CFTR (Homo sapiens, UniProt P13569, DEL508-508)

>  <class>
class 1

$$$$
>  <molecule>
COc1cccc(CCNC(=O)[C@@H]2CC(=O)N(C)[C@@H](CC(C)C)C(=O)N3CCCC[C@@H]3C(=O)N[C@H](Cc3ccccc3)COc3ccc4nc(C)oc4c3C(=O)N2)c1 [Example 614]

>  <system name>
human F508del-CFTR (Homo sapiens, UniProt P13569, DEL508-508)

>  <class>
class 0

$$$$
>  <molecule>
Cc1cc(CCNC(=O)[C@@H]2CC(=O)N(C)[C@@H](CC(C)C)C(=O)N3CCCC[C@@H]3C(=O)N[C@H](Cc3ccccc3)COc3ccnc(C)c3C(=O)N2)on1 [Example 444]

>  <system name>
human F508del-CFTR (Homo sapiens, UniProt P13569, DEL508-508)

>  <class>
class 2

$$$$
